system: NCI-H2347; test: relative viability (nuclei count vs DMSO), 5 days (fraction); higher = more cells survive; conditions: first compound 50 µM
EXPERIMENTAL_ENDPOINT: relative viability
# respond with the number and nothing more

Solved cases below.
MOLECULE	RECORDED_RESULT
O=C(O)CCCCC(CCSCc1ccccc1)SCc1ccccc1 (configuration not stated) [CPI-613] + COc1cc2c(Oc3ccc(NC(=O)C4(C(=O)Nc5ccc(F)cc5)CC4)cc3F)ccnc2cc1OCCCN1CCOCC1 [Foretinib] (partner 0.25 µM)	1.09
O=C(O)CCCCC(CCSCc1ccccc1)SCc1ccccc1 (configuration not stated) [CPI-613] + C[C@@H](Oc1cc(-c2cnn(C3CCNCC3)c2)cnc1N)c1c(Cl)ccc(F)c1Cl [Crizotinib] (partner 1 µM)	0.695

get_value(item= O=C(O)CCCCC(CCSCc1ccccc1)SCc1ccccc1 (configuration not stated) [CPI-613] + Cc1cc(Nc2cc(N3CCN(C)CC3)nc(Sc3ccc(NC(=O)C4CC4)cc3)n2)n[nH]1 [Tozasertib] (partner 0.1 µM) , readout=relative viability) returns 0.566

get_value(item= O=C(O)CCCCC(CCSCc1ccccc1)SCc1ccccc1 (configuration not stated) [CPI-613] + CCNC(=O)c1noc(-c2cc(C(C)C)c(O)cc2O)c1-c1ccc(CN2CCOCC2)cc1 [Luminespib] (partner 0.01 µM) , readout=relative viability) returns 0.746

get_value(item= O=C(O)CCCCC(CCSCc1ccccc1)SCc1ccccc1 (configuration not stated) [CPI-613] + C[C@]1(O)C[C@@H](c2nc(-c3ccc4ccc(-c5ccccc5)nc4c3)c3c(N)nccn32)C1 [Linsitinib] (partner 1 µM) , readout=relative viability) returns 0.86

get_value(item= O=C(O)CCCCC(CCSCc1ccccc1)SCc1ccccc1 (configuration not stated) [CPI-613] + O=C(c1cc(Cc2n[nH]c(=O)c3ccccc23)ccc1F)N1CCN(C(=O)C2CC2)CC1 [Olaparib] (partner 8 µM) , readout=relative viability) returns 0.562

get_value(item= O=C(O)CCCCC(CCSCc1ccccc1)SCc1ccccc1 (configuration not stated) [CPI-613] + Nc1nc2[nH]cc(CCc3ccc(C(=O)N[C@@H](CCC(=O)O)C(=O)O)cc3)c2c(=O)[nH]1 [Pemetrexed] (partner 0.2 µM) , readout=relative viability) returns 0.405

###

Items are presented alongside their recorded relative viability.
system: NCI-H2126; experiment: relative viability (nuclei count vs DMSO), 5 days (fraction); higher = more cells survive; conditions: first compound 0.04 µM
# respond with the number and nothing more

Solved cases below.
COMPOUND	TARGET_OR_TEST_SYSTEM	relative viability
Cc1sc2c(c1C)C(c1ccc(Cl)cc1)=N[C@@H](CC(=O)OC(C)(C)C)c1nnc(C)n1-2 [JQ1] + N=C(N)NC(=N)NCCc1ccccc1 [Phenformin] (partner 250 µM)	NCI-H2126	0.552
Cc1sc2c(c1C)C(c1ccc(Cl)cc1)=N[C@@H](CC(=O)OC(C)(C)C)c1nnc(C)n1-2 [JQ1] + CC(C)C[C@H](NC(=O)[C@H](Cc1ccccc1)NC(=O)c1cnccn1)B(O)O [Bortezomib] (partner 0.002 µM)	NCI-H2126	1.08
Cc1sc2c(c1C)C(c1ccc(Cl)cc1)=N[C@@H](CC(=O)OC(C)(C)C)c1nnc(C)n1-2 [JQ1] + Cc1nc(NC(=O)N2CCC[C@H]2C(N)=O)sc1-c1ccnc(C(C)(C)C(F)(F)F)c1 [Alpelisib] (partner 2 µM)	NCI-H2126	0.797

Here is another compound to look at.
get_value(item= Cc1sc2c(c1C)C(c1ccc(Cl)cc1)=N[C@@H](CC(=O)OC(C)(C)C)c1nnc(C)n1-2 [JQ1] + Nc1nc2[nH]cc(CCc3ccc(C(=O)N[C@@H](CCC(=O)O)C(=O)O)cc3)c2c(=O)[nH]1 [Pemetrexed] (partner 0.2 µM) , readout=relative viability) returns 0.71
